meta.source: PubChem BioAssay AID248

Test system: L1210 leukemia ip in BDF1 mice, survival T/C
Assay: NCI In Vivo Anticancer Drug Screen. Data for tumor model L1210 Leukemia (intraperitoneal) in B6D2F1 (BDF1) mice
Conditions: endpoint: mean survival time; dose: 200.0 mg/kg/injection; schedule: Q04DX003 (ip); vehicle: saline with Tween-80; higher = longer survival
Inconclusive results and toxic doses are left out.
T/C values, listed per item

Some molecules with known T/C results, for comparison:
| molecule | T/C |
| --- | --- |
| COc1cccc(C=Nc2ccc(N(C)C)cc2)c1O.COc1cccc(C=Nc2ccc(N(C)C)cc2)c1O.[Co] | 98 % of control |
| CC(C)(C(O)c1ccccc1)[N+](=O)[O-] (centres undefined) | 97 % of control |
| CC(=O)c1ccc(OCC(O)CN2CCN(c3ccccc3)CC2)c(C)c1 (centres undefined) | 108 % of control |

Next molecule, T/C to be filled in.
In: # input molecule: COc1ccc(/C=C\c2nc3ccccc3c(=O)[nH]2)cc1 ; wanted: its T/C
Out: 88 % of control
